Biological target: hCB2 (Homo sapiens)
Construct: expressed in transfected cells; host or cells: HEK Flp-in
Sequence (P34972 whole entry): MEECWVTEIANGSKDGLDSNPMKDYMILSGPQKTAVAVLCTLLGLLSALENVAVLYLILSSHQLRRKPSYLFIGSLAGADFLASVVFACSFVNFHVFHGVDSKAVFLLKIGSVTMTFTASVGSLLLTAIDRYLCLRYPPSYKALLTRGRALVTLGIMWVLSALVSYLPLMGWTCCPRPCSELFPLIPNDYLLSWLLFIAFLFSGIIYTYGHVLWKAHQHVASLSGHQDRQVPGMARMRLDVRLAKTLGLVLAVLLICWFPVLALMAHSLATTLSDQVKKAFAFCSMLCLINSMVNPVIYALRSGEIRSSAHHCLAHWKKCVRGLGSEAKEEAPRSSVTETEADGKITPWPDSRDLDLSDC
Test: Radioligand competition binding with [3H]-CP 55,940 on hCB2-expressing HEK membranes
Settings: heterologous competition vs [3H]-CP 55,940; read-out: CB2 pKi (±SEM) (converted)
Ki for assorted compounds
Write down the numeric answer in nM and omit the unit.

Some compounds with recorded Ki:
CCOc1nc(NC23CC4CC(CC(C4)C2)C3)nc(N2CCNCC2)n1
417
CCOc1nc(NC23CC4CC(CC(C4)C2)C3)nc(N2CCN(CCOCCOCCN)CC2)n1
1820
CCOc1nc(NC23CC4CC(CC(C4)C2)C3)nc(N2CCN(CCF)CC2)n1
1.62

Now for a further compound.
Tell me the measured Ki of `CCOc1nc(NC23CC4CC(CC(C4)C2)C3)nc(N2CCN(CCOCCOCCNC(=O)OC(C)(C)C)CC2)n1` , please.
661
